Molecular target: T1, Fc tagged mouse TNFR1 (Sino Biological) (mouse, UniProt P25118 22-212, limits assumed)
T1 construct: Bought reagent; also called mTNFR1; mTNFR1-Fc; not shown: Fc tag of the bought protein
T1 sequence (looked up): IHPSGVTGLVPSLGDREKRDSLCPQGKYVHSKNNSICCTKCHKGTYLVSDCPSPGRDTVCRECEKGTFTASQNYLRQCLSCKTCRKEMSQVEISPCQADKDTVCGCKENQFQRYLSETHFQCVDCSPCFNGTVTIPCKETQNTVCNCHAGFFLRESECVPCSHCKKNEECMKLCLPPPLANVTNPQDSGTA
Experiment: SPR, Biacore T200 multi cycle kinetics, receptor-Fc captured on Protein A chip, TNF 1.25-40 nM, 1:1 model
# pKd per record follows
The scale used: pKd is minus the common logarithm of the concentration in molar units.

{"columns": ["Binder", "pKd"],
 "data": [
  ["TNF mutein F3 (ligand, Human TNF mutein, TTTYRL at positions 84-89; not shown: C-terminal FLAG tag and His6 tag from vector pANT65) VRSSSRTPSDKPVAHVVANPQAEGQLQWLNRRANALLANGVELRDNQLVVPSEGLYLIYSQVLFKGQGCPSTHVLLTHTISRITTTYRLKVNLLSAIKSPCQRETPEGAEAKPWYEPIYLGGVFQLEKGDRLSAEINRPDYLDFAESGQVYFGIVAL", 8.29]
]}

Next, consider the following binder.
In one line, give reported pKd of the entry TNF mutein C8 (ligand, Human TNF mutein, SQTHDG at positions 84-89; not shown: C-terminal FLAG tag and His6 tag from vector pANT65) VRSSSRTPSDKPVAHVVANPQAEGQLQWLNRRANALLANGVELRDNQLVVPSEGLYLIYSQVLFKGQGCPSTHVLLTHTISRISQTHDGKVNLLSAIKSPCQRETPEGAEAKPWYEPIYLGGVFQLEKGDRLSAEINRPDYLDFAESGQVYFGIIAL .
9.95

Where do the numbers come from? From patent US20220387557A1.
